Listed here: items and their measured pIC50.
Molecular target: human CRF receptor I (Homo sapiens)
Construct: expressed in transfected cells; host or cells: CHO-K1
Sequence (P34998 24-415): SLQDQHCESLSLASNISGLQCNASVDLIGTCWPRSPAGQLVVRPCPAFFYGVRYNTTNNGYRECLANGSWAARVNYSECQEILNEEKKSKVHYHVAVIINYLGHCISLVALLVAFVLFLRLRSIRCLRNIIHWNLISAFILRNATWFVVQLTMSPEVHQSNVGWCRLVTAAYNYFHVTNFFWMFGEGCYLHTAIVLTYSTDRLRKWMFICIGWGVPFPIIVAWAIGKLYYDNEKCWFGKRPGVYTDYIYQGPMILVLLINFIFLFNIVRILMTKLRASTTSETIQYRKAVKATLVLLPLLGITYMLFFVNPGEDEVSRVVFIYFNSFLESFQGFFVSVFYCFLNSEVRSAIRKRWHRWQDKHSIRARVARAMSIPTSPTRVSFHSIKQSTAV
Test: Binding assay (125I-CRF, membrane fraction)
Conditions: 125I-CRF 0.25 nM, membrane fraction of CHO-K1 cells expressing human CRF receptor I, room temperature 2 hours
pIC50: −log10 of the molar value.
property_label: pIC50

compound	measured
CCc1cc(OC)ccc1-c1nn2c(C)cc(C(CC)CC)c2c(=O)n1C [8(25)]	8.44
CCC(CC)c1cc(C)n2nc(-c3ccc(OC)cc3C)n(CC(N)=O)c(=O)c12 [8(38)]	7.63
CCC(CC)c1cc(C)n2nc(-c3c(C)nc(N(C)C)nc3C)n(C)c(=O)c12 [8(27)]	7.83
CCn1c(-c2ccc(SC)cc2Cl)nn2c(C)cc(C(C)C)c2c1=O [Example 14(2)]	8.35

###

Biological target: human CRF receptor I (Homo sapiens)
Construct: expressed in transfected cells; host or cells: CHO-K1
Test: Binding assay (125I-CRF, membrane fraction)
Conditions: 125I-CRF 0.25 nM, membrane fraction of CHO-K1 cells expressing human CRF receptor I, room temperature 2 hours

compound	IC50
CCCC(C)c1cc(C)n2nc(-c3cnc(OC(F)F)cc3C)n(C)c(=O)c12 (stereo not drawn)	20.7 nM
CCCC(C)c1cc(C)n2nc(-c3ccc(SC)cc3Cl)n(C)c(=O)c12 (stereo not drawn)	2.1 nM
CCC(CC)c1cc(C)n2nc(-c3ncc(OC)cc3Cl)n(C)c(=O)c12	5.2 nM
CCC(CC)c1cc(C)n2nc(-c3ccc(OC(F)(F)F)cc3Cl)n(C)c(=O)c12	6.1 nM
CCC(CC)c1cc(C)n2nc(-c3sc(N(C)C)nc3Cl)n(C)c(=O)c12	7.2 nM
CCN(CC)c1cc(C)n2nc(-c3ccc(OC)cc3Cl)n(C)c(=O)c12	4.9 nM
CCn1c(-c2ccc(SC)cc2C)nn2c(C)cc(C(C)C)c2c1=O	11 nM
CCC(CC)c1cc(C)n2nc(-c3ccc(OC)cc3C)n(CCO)c(=O)c12	7.8 nM
CCC(CC)c1cc(C)n2nc(-c3cnc(OC(F)F)cc3C)n(C)c(=O)c12	5.3 nM

###

Biological target: human CRF receptor I (Homo sapiens, UniProt P34998)
Construct: expressed in transfected cells; host or cells: CHO-K1
Assay: Receptor antagonistic activity (cyclic AMP assay)
Format: cell-based
Conditions: accumulated cyclic AMP, human/rat CRF stimulation, cells expressing human CRF receptor I, 37° C. 15 minutes
pIC50: −log10 of the molar value.

compound	pIC50
CCN(CC)c1cc(C)n2nc(-c3ccc(OC)cc3Cl)n(C)c(=O)c12 [Example 65]	8.46
CCC(CC)c1cc(C)n2nc(-c3cnc(OC(F)F)cc3C)n(C)c(=O)c12 [Example 13]	8.49
CCCC(C)c1cc(C)n2nc(-c3cnc(OC(F)F)cc3C)n(C)c(=O)c12 (stereo not drawn) [28(10)]	7.77
CCC(CC)c1cc(C)n2nc(-c3ccc(OC)cc3C)n(CCO)c(=O)c12 [8(44)]	8.38
CCn1c(-c2ccc(SC)cc2Cl)nn2c(C)cc(C(C)C)c2c1=O [Example 14(2)]	8.68
CCc1cc(OC)ccc1-c1nn2c(C)cc(C(CC)CC)c2c(=O)n1C [8(25)]	8.77

Reference source for all entries: patent US8420810B2
